Please respond with reported IC90 for every item in the list.
# Test system: Mycobacterium tuberculosis
# assayText: Antitubercular activity against isoniazid-resistant Mycobacterium tuberculosis H37Rv INH-R1 harboring katG Y155 mutant after 5 days
# Assay type: functional, organism-based
One number for each entry, in µM.

Request the reported IC90 associated with O=C(CCn1cnc([N+](=O)[O-])n1)Nc1ccc(Oc2ccc(F)cc2)cc1 65

Request the reported IC90 associated with O=C(Cn1cnc([N+](=O)[O-])n1)Nc1cccc(-c2ccccc2)c1 43

Request the reported IC90 associated with O=C(Cn1cnc([N+](=O)[O-])n1)Nc1ccc(N2CCCCC2)cc1 53

Request the reported IC90 associated with O=C(CCn1cnc([N+](=O)[O-])n1)Nc1cccc(-c2ccccc2)c1 15

Request the reported IC90 associated with O=C(Cn1cnc([N+](=O)[O-])n1)Nc1ccc(Oc2ccc(Cl)cc2)cc1 76

We now examine a further molecule.
Request the reported IC90 associated with O=C(Cn1cnc([N+](=O)[O-])n1)N1CCN(Cc2ccc(C(F)(F)F)cc2)CC1 44

* * *

# System: Mycobacterium tuberculosis
# assayText: Antitubercular activity against rifampicin-resistant Mycobacterium tuberculosis H37Rv RIF-R1 harboring rpoB S522L mutant after 5 days
# Assay type: functional, organism-based
experimentalReadout: IC90

Solved entries:
Request the reported IC90 associated with O=C(Cn1cnc([N+](=O)[O-])n1)Nc1ccc(Cc2ccccc2)cc1 40 µM

Request the reported IC90 associated with O=C(CCn1cnc([N+](=O)[O-])n1)Nc1ccc(Oc2ccc(F)cc2)cc1 23 µM

Request the reported IC90 associated with O=C(Cn1ccnc1[N+](=O)[O-])Nc1ccc(Oc2ccc(Cl)cc2)cc1 > 100 µM

Request the reported IC90 associated with O=C(Cn1cnc([N+](=O)[O-])n1)Nc1ccc(Oc2ccc(Cl)cc2)cc1 91 µM

Request the reported IC90 associated with O=C(Cn1ccnc1[N+](=O)[O-])Nc1ccc(Oc2ccccc2)cc1 > 200 µM

Request the reported IC90 associated with O=C(Cn1ccnc1[N+](=O)[O-])Nc1ccc(Oc2ccc(F)cc2)cc1 > 100 µM

We now examine a further compound.
Request the reported IC90 associated with O=C(Cn1cnc([N+](=O)[O-])n1)Nc1nc(-c2ccc(F)c(F)c2)cs1 40 µM

* * *

Please respond with reported IC90 for every item in the list.
# System: Mycobacterium tuberculosis
# assayText: Antitubercular activity against rifampicin-resistant Mycobacterium tuberculosis H37Rv RIF-R1 harboring rpoB S522L mutant after 5 days
# Format: functional, organism-based
Numbers only, in µM.

Request the reported IC90 associated with O=C(Cn1cnc([N+](=O)[O-])n1)Nc1cccc(-c2ccccc2)c1 40

Request the reported IC90 associated with O=C(CCn1cnc([N+](=O)[O-])n1)Nc1ccc(Oc2ccccc2)cc1 42

For every record below, what is its IC90?
1. O=C(Cn1cnc([N+](=O)[O-])n1)N1CCN(Cc2ccc(C(F)(F)F)cc2)CC1
2. O=C(Cn1cnc([N+](=O)[O-])n1)Nc1ccc(N2CCCCC2)cc1

32
41

For every record below, what is its IC90?
1. O=C(Cn1cnc([N+](=O)[O-])n1)N1CCN(C(c2ccccc2)c2ccc(Cl)cc2)CC1 (stereo not given)
2. O=C(CCn1cnc([N+](=O)[O-])n1)Nc1cccc(-c2ccccc2)c1
3. O=C(Cn1cnc([N+](=O)[O-])n1)N1CCN(Cc2ccc(Cl)c(Cl)c2)CC1

1. 32
2. 8
3. 8.3

For every record below, what is its IC90?
1. O=C(CCn1cnc([N+](=O)[O-])n1)Nc1cccc(OCc2ccccc2)c1
2. O=C(Cn1cnc([N+](=O)[O-])n1)Nc1ccc(Oc2ccccc2)cc1
3. O=C(CCn1cnc([N+](=O)[O-])n1)Nc1ccc(Oc2ccc(Cl)cc2)cc1

1: 3.7; 2: 150; 3: 22

* * *

# System: Mycobacterium tuberculosis
# assayText: Antitubercular activity against isoniazid-resistant Mycobacterium tuberculosis H37Rv INH-R1 harboring katG Y155 mutant after 5 days
# Assay type: functional, organism-based
experimentalReadout: pIC50
Give bare numbers, as −log10 of the molar value.

Solved entries:
Request the reported pIC50 associated with O=C(Cn1ccnc1[N+](=O)[O-])Nc1ccc(Oc2ccc(F)cc2)cc1 4.19

Request the reported pIC50 associated with O=C(CCn1cnc([N+](=O)[O-])n1)Nc1cccc(-c2ccccc2)c1 5.07

Request the reported pIC50 associated with O=C(Cn1cnc([N+](=O)[O-])n1)N1CCN(C(c2ccccc2)c2ccc(Cl)cc2)CC1 (configuration not stated) 4.32

Request the reported pIC50 associated with O=C(Cn1cnc([N+](=O)[O-])n1)Nc1ccc(N2CCCCC2)cc1 4.47

Request the reported pIC50 associated with O=C(CCn1cnc([N+](=O)[O-])n1)Nc1cccc(OCc2ccccc2)c1 5.35

For every record below, what is its pIC50?
1. O=C(Cn1cnc([N+](=O)[O-])n1)Nc1nc(-c2ccc(F)c(F)c2)cs1
2. O=C(Cn1cnc([N+](=O)[O-])n1)Nc1ccc(Oc2ccc(Cl)cc2)cc1
3. O=C(Cn1cnc([N+](=O)[O-])n1)Nc1cccc(-c2ccccc2)c1
4. O=C(CCn1cnc([N+](=O)[O-])n1)Nc1ccc(Oc2ccccc2)cc1
5. O=C(Cn1cnc([N+](=O)[O-])n1)Nc1ccc(Cc2ccccc2)cc1
6. O=C(CCn1cnc([N+](=O)[O-])n1)Nc1ccc(Oc2ccc(Cl)cc2)cc1

1: 4.49; 2: 4.27; 3: 4.51; 4: 4.42; 5: 4.48; 6: 4.60

* * *

# Test system: Mycobacterium tuberculosis
# assayText: Antitubercular activity against isoniazid-resistant Mycobacterium tuberculosis INH-R2 ATCC 35822 after 5 days
# Type: functional, organism-based
# testSettings: INH-R2 ATCC 35822, 120 h
Please respond with reported MIC for every item in the list.
Numbers only, in µM.

Request the reported MIC associated with O=C(NCCCCn1cnc([N+](=O)[O-])n1)c1nc2ccccc2s1 7.9

Request the reported MIC associated with O=C(Cn1cnc([N+](=O)[O-])n1)N1CCN(C(c2ccccc2)c2ccc(Cl)cc2)CC1 (centres undefined) 45

Request the reported MIC associated with O=C(Cn1cnc([N+](=O)[O-])n1)Nc1cccc(-c2ccccc2)c1 28

We now examine a further compound.
Request the reported MIC associated with C[C@H]1COc2c(N3CCN(C)CC3)c(F)cc3c(=O)c(C(=O)O)cn1c23.C[C@H]1COc2c(N3CCN(C)CC3)c(F)cc3c(=O)c(C(=O)O)cn1c23.O 1.3

* * *

# System: Mycobacterium tuberculosis
# assayText: Antitubercular activity against isoniazid-resistant Mycobacterium tuberculosis H37Rv INH-R1 harboring katG Y155 mutant after 5 days
# Assay type: functional, organism-based
Please respond with reported pIC50 for every item in the list.
Answers are plain numbers, as −log10 of the molar value.

For every record below, what is its pIC50?
1. O=C(Cn1cnc([N+](=O)[O-])n1)N1CCN(Cc2ccc(Cl)c(Cl)c2)CC1
2. O=C(Cn1ccnc1[N+](=O)[O-])Nc1ccc(Oc2ccccc2)cc1
3. O=C(Cn1cnc([N+](=O)[O-])n1)N1CCN(Cc2ccc(C(F)(F)F)cc2)CC1
4. O=C(Cn1cnc([N+](=O)[O-])n1)Nc1ccc(Oc2ccccc2)cc1
5. O=C(CCn1cnc([N+](=O)[O-])n1)Nc1ccc(Oc2ccc(F)cc2)cc1

5.05
4.12
4.49
4.14
4.54

* * *

# Tested on: Mycobacterium tuberculosis
# assayText: Antitubercular activity against fluoroquinolone-resistant Mycobacterium tuberculosis H37Rv harboring gyrB D94N mutant after 5 days
# Assay type: functional, organism-based
Please respond with reported MIC for every item in the list.
Answers are plain numbers, in µM.

Request the reported MIC associated with O=C(Cn1cnc([N+](=O)[O-])n1)N1CCN(Cc2ccc(C(F)(F)F)cc2)CC1 28

For every record below, what is its MIC?
1. C[C@H]1COc2c(N3CCN(C)CC3)c(F)cc3c(=O)c(C(=O)O)cn1c23.C[C@H]1COc2c(N3CCN(C)CC3)c(F)cc3c(=O)c(C(=O)O)cn1c23.O
2. O=C(Cn1ccnc1[N+](=O)[O-])Nc1ccc(Oc2ccc(F)cc2)cc1
3. O=C(Cn1cnc([N+](=O)[O-])n1)Nc1ccc(Cc2ccccc2)cc1
4. O=C(Cn1cnc([N+](=O)[O-])n1)Nc1cccc(-c2ccccc2)c1

1. 14
2. 200
3. 30
4. 28

* * *

# Test system: Mycobacterium tuberculosis
# assayText: Antitubercular activity against isoniazid-resistant Mycobacterium tuberculosis INH-R2 ATCC 35822 after 5 days
# Format: functional, organism-based
# testSettings: INH-R2 ATCC 35822, 120 h
Please respond with reported log10 MIC for every item in the list.
log10 MIC, µM

Solved entries:
Request the reported log10 MIC associated with O=C(Cn1cnc([N+](=O)[O-])n1)N1CCN(Cc2ccc(C(F)(F)F)cc2)CC1 1.45

Request the reported log10 MIC associated with O=C(Cn1cnc([N+](=O)[O-])n1)N1CCN(Cc2ccc(Cl)c(Cl)c2)CC1 1.08

Request the reported log10 MIC associated with O=C(Cn1cnc([N+](=O)[O-])n1)Nc1ccc(N2CCCCC2)cc1 1.68

For every record below, what is its log10 MIC?
1. O=C(Cn1cnc([N+](=O)[O-])n1)Nc1ccc(Oc2ccc(Cl)cc2)cc1
2. O=C(CCn1cnc([N+](=O)[O-])n1)Nc1cccc(OCc2ccccc2)c1
3. O=C(CCn1cnc([N+](=O)[O-])n1)Nc1ccc(Oc2ccc(F)cc2)cc1
4. O=C(CCn1cnc([N+](=O)[O-])n1)Nc1ccc(Oc2ccccc2)cc1
5. CO[C@H]1/C=C/O[C@@]2(C)Oc3c(C)c(O)c4c(O)c(c(/C=N/N5CCN(C)CC5)c(O)c4c3C2=O)NC(=O)/C(C)=C\C=C\[C@H](C)[C@H](O)[C@@H](C)[C@@H](O)[C@@H](C)[C@H](OC(C)=O)[C@@H]1C

1: 1.74; 2: 0.76; 3: 1.56; 4: 1.75; 5: -1.96
